Please respond with reported pIC50 for every item in the list.
Molecular target: PPIL1 (Homo sapiens, UniProt Q9Y3C6)
Construct: PPIL1 (UniProtKB Entry Q9Y3C6: residues 1–166); made in house; host or cells: E. coli BL21(DE3)
Test: Chymotrypsin coupled prolyl-isomerase assay
Format: biochemical
Conditions: wild-type PPIL1; read-out: Wild-Type Cyclophilin Prolyl Isomerase Inhibition IC50 Values, PPIL1
Numbers only, as −log10 of the molar value.

Worked examples, 2 compounds total:
NCCOCCNC(=O)[C@@H]1CCNC(=O)/C=C/C(=O)N2CCC[C@](Cc3ccccc3)(C2)C(=O)N[C@@H](Cc2ccc(-c3ccccc3)cc2)C(=O)NCc2ccccc2CC(=O)N1 | 5.72
NC(=O)C1CCNC(=O)C=CC(=O)N2CCCC(Cc3ccccc3)(C2)C(=O)NC(Cc2ccc(-c3ccc(C=O)c(B(O)O)c3)cc2)C(=O)NCc2ccccc2CC(=O)N1 (stereo not drawn) | 6.40

QUERY: State its pIC50 on PPIL1 (Homo sapiens, UniProt Q9Y3C6): CC12CCCN(C1)C(=O)C=CC(=O)NCCC(C(=O)NCCOCCN)NC(=O)Cc1ccccc1CNC(=O)C(Cc1ccco1)NC2=O (stereo not drawn)
RESULT: 4.96

###

Please respond with reported IC50 for every item in the list.
Target: CypD R124K (Homo sapiens, UniProt P30405, R124K)
Sequence (P30405 45-207 R124K): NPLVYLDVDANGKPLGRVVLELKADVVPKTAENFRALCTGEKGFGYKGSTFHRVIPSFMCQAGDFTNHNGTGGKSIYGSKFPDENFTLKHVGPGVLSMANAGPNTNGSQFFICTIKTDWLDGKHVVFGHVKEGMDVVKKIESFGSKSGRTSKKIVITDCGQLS
Assay: Chymotrypsin coupled prolyl-isomerase assay
Details: mutant CypD R124K; read-out: Mutant Cyclophilin Prolyl Isomerase Inhibition IC50 Values, CypD R124K
Numbers only, in nM.

Please go through the list and note IC50 for each molecule.
1. NCCOCCNC(=O)[C@@H]1CCNC(=O)/C=C/C(=O)N2CCC[C@](Cc3ccccc3)(C2)C(=O)N[C@@H](Cc2ccc(-c3ccc(CCC(=O)O)cc3)cc2)C(=O)NCc2ccccc2CC(=O)N1
2. NCCOCCNC(=O)[C@@H]1CCNC(=O)/C=C/C(=O)N2CCC[C@](Cc3ccccc3)(C2)C(=O)N[C@@H](Cc2ccc(-c3ccc(C(CC(=O)O)CC(=O)O)cc3)cc2)C(=O)NCc2ccccc2CC(=O)N1
3. NCCOCCNC(=O)[C@@H]1CCNC(=O)/C=C/C(=O)N2CCC[C@](Cc3ccccc3)(C2)C(=O)N[C@@H](Cc2ccc(-c3ccc(C#CC(=O)O)cc3)cc2)C(=O)NCc2ccccc2CC(=O)N1
4. NCCOCCNC(=O)[C@@H]1CCNC(=O)/C=C/C(=O)N2CCC[C@](Cc3ccccc3)(C2)C(=O)N[C@@H](Cc2ccc(-c3ccc(CC(C(=O)O)C(=O)O)cc3)cc2)C(=O)NCc2ccccc2CC(=O)N1

RESULT:
1: 2.9; 2: 100; 3: 2.9; 4: 20

###

Molecular target: PPIL3 (Homo sapiens)
Construct: PPIL3 (UniProtKB Entry Q9H2H8: residues 1–161); His6 tag with TEV site (2BT vector); SNA remnant stays on the N-terminus (N, cleaved yes)
Experiment: Competition anisotropy binding assay with A26-Fl
Conditions: FP competition with 0.5 nM A26-Fl, 24 h
pKi: −log10 of the molar value.
measuredProperty: pKi

QUERY: What pKi value was documented for this compound, NC(=O)C1CCNC(=O)C=CC(=O)N2CCCC(Cc3ccccc3)(C2)C(=O)NC(Cc2ccc(-c3ccc(C=O)c(B(O)O)c3)cc2)C(=O)NCc2ccccc2CC(=O)N1 (stereo not shown) ?
RESULT: < 5.00

###

Target: CypB (Homo sapiens, UniProt P23284)
Construct: PPIB (UniProtKB Entry P23284: residues 34–216); His6 with TEV site (2BT vector leader) (N)
Sequence (P23284 34-216): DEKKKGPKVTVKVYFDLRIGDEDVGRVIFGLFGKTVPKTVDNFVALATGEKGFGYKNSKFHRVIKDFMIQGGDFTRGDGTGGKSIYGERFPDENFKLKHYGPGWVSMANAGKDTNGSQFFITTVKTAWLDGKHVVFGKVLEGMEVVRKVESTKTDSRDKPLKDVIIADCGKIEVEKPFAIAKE
Assay: Competition anisotropy binding assay with A26-Fl
Conditions: FP competition with 0.5 nM A26-Fl, 24 h
measuredProperty: pKi
Numbers only, as −log10 of the molar value.

QUERY: What pKi value was documented for this molecule, NC(=O)C1CCNC(=O)C=CC(=O)N2CCCC(Cc3ccccc3)(C2)C(=O)NC(Cc2ccc(-c3ccc(C=O)c(B(O)O)c3)cc2)C(=O)NCc2ccccc2CC(=O)N1 (stereo not shown) ?
RESULT: 5.25

###

Biological target: NKTR (Homo sapiens, UniProt P30414)
Construct: NKTR (UniProtKB Entry P30414: residues 7–179); host or cells: E. coli BL21(DE3)
Sequence (P30414 7-179): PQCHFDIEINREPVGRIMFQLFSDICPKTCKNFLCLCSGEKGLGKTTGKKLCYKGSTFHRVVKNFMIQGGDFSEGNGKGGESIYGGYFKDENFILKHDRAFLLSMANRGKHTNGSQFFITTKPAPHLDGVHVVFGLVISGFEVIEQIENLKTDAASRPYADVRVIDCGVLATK
Assay: Chymotrypsin coupled prolyl-isomerase assay
Format: biochemical
Settings: wild-type NKTR; read-out: Wild-Type Cyclophilin Prolyl Isomerase Inhibition IC50 Values, NKTR
measuredProperty: pIC50
One number for each entry, as −log10 of the molar value.

CC12CCCN(C1)C(=O)C=CC(=O)NCCC(C(=O)NCCOCCN)NC(=O)Cc1ccccc1CNC(=O)C(Cc1ccco1)NC2=O (centres unmarked) | 5.10

Consider now this further compound.
QUERY: What pIC50 value was documented for this compound, NCCOCCNC(=O)C1CCNC(=O)C=CC(=O)N2CCCC(C2)C(=O)NC(Cc2ccco2)C(=O)NCc2ccccc2CC(=O)N1 (centres unmarked) ?
RESULT: 4.22

###

Target: CypE K218A (Homo sapiens, UniProt Q9UNP9, K218A)
Construct: Lane 6- GS-CypE K218A (131-301);; His6 tag with thrombin site (pET28a LIC); GS remnant stays on the N-terminus (N, cleaved yes)
Sequence (Q9UNP9 131-301 K218A): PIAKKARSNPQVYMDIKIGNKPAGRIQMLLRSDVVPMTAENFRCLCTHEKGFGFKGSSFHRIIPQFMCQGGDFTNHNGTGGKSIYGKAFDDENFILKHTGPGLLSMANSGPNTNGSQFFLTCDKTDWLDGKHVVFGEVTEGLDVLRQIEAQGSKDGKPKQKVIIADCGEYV
Assay: Competition anisotropy binding assay with A26-Fl
Details: FP competition with 0.5 nM A26-Fl, 24 h
measuredProperty: Ki (nM)
Give bare numbers, in nM.

QUERY: What Ki value was documented for this molecule, NC(=O)C1CCNC(=O)C=CC(=O)N2CCCC(Cc3ccccc3)(C2)C(=O)NC(Cc2ccc(-c3ccc(C=O)c(B(O)O)c3)cc2)C(=O)NCc2ccccc2CC(=O)N1 (stereo not shown) [Compound C3A] ?
RESULT: 250

###

Molecular target: Cyp40 (Homo sapiens, UniProt Q08752)
Sequence (Q08752 1-183): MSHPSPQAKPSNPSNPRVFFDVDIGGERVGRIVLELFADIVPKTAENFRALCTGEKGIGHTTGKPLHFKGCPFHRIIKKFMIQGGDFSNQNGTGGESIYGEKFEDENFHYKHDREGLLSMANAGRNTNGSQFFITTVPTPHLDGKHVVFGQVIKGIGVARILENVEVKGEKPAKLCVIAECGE
Experiment: Chymotrypsin coupled prolyl-isomerase assay
Details: Wild-Type Cyclophilin Prolyl Isomerase Inhibition IC50 Values, Cyp40, wild-type Cyp40
pIC50: −log10 of the molar value.
Decide using pIC50: a value greater than or equal to 6 is Condition met, a smaller one is Condition not met.

Use these answered entries as a reference point.
NCCOCCNC(=O)[C@@H]1CCNC(=O)/C=C/C(=O)N2CCC[C@](Cc3ccccc3)(C2)C(=O)N[C@@H](Cc2ccc(-c3ccc(C#CC(=O)O)cc3)cc2)C(=O)NCc2ccccc2CC(=O)N1 | Condition met
NCCOCCNC(=O)C1CCNC(=O)C=CC(=O)N2CCCC(Cc3ccccc3)(C2)C(=O)NC(Cc2ccco2)C(=O)NCc2ccccc2CC(=O)N1 (centres unmarked) | Condition met
NCCOCCNC(=O)C1CCNC(=O)C=CC(=O)N2CCCC(C2)C(=O)NC(Cc2ccco2)C(=O)NCc2ccccc2CC(=O)N1 (centres unmarked) | Condition not met
NC(=O)C1CCNC(=O)C=CC(=O)N2CCCC(Cc3ccccc3)(C2)C(=O)NC(Cc2ccc(-c3ccc(C=O)c(B(O)O)c3)cc2)C(=O)NCc2ccccc2CC(=O)N1 (centres unmarked) | Condition not met

Now consider the entry below.
QUERY: Quick check: does `NCCOCCNC(=O)[C@@H]1CCNC(=O)/C=C/C(=O)N2CCC[C@](Cc3ccccc3)(C2)C(=O)N[C@@H](Cc2ccc(-c3ccc(CCC(=O)O)cc3)cc2)C(=O)NCc2ccccc2CC(=O)N1` have pIC50 greater than or equal to 6?
RESULT: Condition not met

###

Target: CypD (Homo sapiens)
Sequence (P30405 45-207): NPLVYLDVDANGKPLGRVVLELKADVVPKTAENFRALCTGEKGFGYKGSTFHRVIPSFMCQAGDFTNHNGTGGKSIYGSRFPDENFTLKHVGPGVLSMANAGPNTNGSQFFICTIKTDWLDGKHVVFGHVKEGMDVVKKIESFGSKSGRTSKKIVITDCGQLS
Experiment: Chymotrypsin coupled prolyl-isomerase assay
measuredProperty: IC50

NCCOCCNC(=O)C1CCNC(=O)C=CC(=O)N2CCCC(C2)C(=O)NC(Cc2ccco2)C(=O)Nc2ccccc2C(=O)N1 (stereo not drawn) | > 100 µM

Please go through the list and note IC50 for each molecule.
1. NCCOCCNC(=O)C1CCNC(=O)Cc2ccccc2CNC(=O)C(Cc2ccco2)NC(=O)C2CCCN(C2)C(=O)C=CC(=O)N1 (stereo not drawn) [JOMFt]
2. NCCOCCNC(=O)C1CCNC(=O)C=CC(=O)N2CCCC(C2)C(=O)NC(CC2CCCCC2)C(=O)NCc2ccccc2CC(=O)N1 (stereo not drawn)
3. NCCOCCNC(=O)[C@@H]1CCNC(=O)/C=C/C(=O)N2CCC[C@](Cc3ccccc3)(C2)C(=O)N[C@@H](Cc2ccc(-c3ccc(C#CC(=O)O)cc3)cc2)C(=O)NCc2ccccc2CC(=O)N1

RESULT:
1: ~90 µM; 2: > 100 µM; 3: 0.003 µM

Please go through the list and note IC50 for each molecule.
1. NCCOCCNC(=O)C1CCNC(=O)C=CC(=O)N2CCCC(C2)C(=O)NC(Cc2ccccc2)C(=O)NCc2ccccc2CC(=O)N1 (stereo not drawn)
2. NCCOCCNC(=O)C1CCNC(=O)C=CC(=O)N2CCCC(CC(=O)NC(Cc3ccco3)C(=O)NCc3ccccc3CC(=O)N1)C2 (stereo not drawn)

RESULT:
["17 µM", "49 µM"]

Source listed as paper PMC9596378.
